- System: MDA-MB-231 breast
- measurement.description: NCI-60 one-dose screen, 48 h (100 = growth as untreated, 0 = no growth, -100 = all killed)
- measurement.context: 10 µM unless noted
The panel holds about 83,000 compounds, 20% with a hit somewhere; the sample as a whole holds those more often.
Classification field. Basis: growth. Definitions: zone 1: < 10%; zone 2: ≥ 10% and < 90%; zone 3: ≥ 90%

Note: place this compound into its band. Item: "COc1cc(/C=C/[N+](=O)[O-])c([N+](=O)[O-])cc1OC"
zone 1

Note: place this compound into its band. Item: "CC1=C(O)[C@@](C)(CCCCC[C@H](C)CCCCc2ccc(O)cc2)OOC1=O"
zone 2

Note: place this compound into its band. Item: "COc1ccc(C(O)(C(=O)O)c2ccc(OC)cc2)cc1"
zone 2

Note: place this compound into its band. Item: O=C1OCCC1Br (stereo not drawn)
zone 3

Note: place this compound into its band. Item: "CCOC(=O)[C@@H](C)C[C@H](Cc1ccccc1)NC(=O)c1csc([C@@H](C[C@H](C(C)C)N(C)C(=O)[C@H](CCC(C)C)NC(=O)[C@H]2CCCCN2C)OC(C)=O)n1"
zone 1

Note: place this compound into its band. Item: "C=C1[C@@H](C)[C@H]2[C@H](Cc3ccccc3)NC(=O)[C@]23[C@@H](O)/C=C/[C@@](C)(O)C(=O)[C@@H](C)C/C=C/[C@H]3[C@@H]1O"
zone 2

Note: place this compound into its band. Item: "C[C@@]12CC=C3c4nc(Nc5cccc(O)c5)sc4CC[C@]3(C)[C@H]1CC[C@]1(C)C(=O)CC[C@@H]21"
zone 2

Note: place this compound into its band. Item: "O=[N+]([O-])c1cc([N+](=O)[O-])c(Cl)cc1Cl"
zone 1

Note: place this compound into its band. Item: "COC(=O)[C@@H](C)C[C@H](Cc1ccccc1)NC(=O)c1csc([C@@H](C[C@H](C(C)C)N(C)C(=O)[C@@H](NC(=O)[C@H]2CCCCN2C)c2ccc(F)cc2)OC(C)=O)n1"
zone 1

Note: place this compound into its band. Item: ClCCN(CCCl)c1nc(Cl)c(C2CC(c3ccccc3)=NN2c2cc(Cl)cc(Cl)c2)s1 (stereo not drawn)
zone 3

Note: place this compound into its band. Item: "COc1ccc(/C=C/c2cc(OC)c(OC)c(OC)c2)cc1NC(=O)/C=C/c1ccc(F)cc1"
zone 2

Note: place this compound into its band. Item: "COC(=O)[C@@H](C)C[C@H](Cc1ccc(F)cc1)NC(=O)c1csc([C@@H](C[C@H](C(C)C)N(C)C(=O)[C@@H](NC(=O)[C@H]2CCCCN2C)C2CC2)OC(C)=O)n1"
zone 2

Note: place this compound into its band. Item: C1CCC([PH+](C2CCCCC2)C2CCCCC2[PH+](C2CCCCC2)C2CCCCC2)CC1.O=C(C1[CH-]CCCC1)C1CCCC[N-]1.[Au] (stereo not drawn)
zone 1

Note: place this compound into its band. Item: "CC[C@H](C)[C@H](NC(=O)N[C@@H](C)c1ccccc1)C(=O)N(C)[C@H](C[C@@H](OC(C)=O)c1nc(C(=O)N[C@@H](Cc2ccccc2)C[C@H](C)C(=O)OC)cs1)C(C)C"
zone 1

Note: place this compound into its band. Item: CCCCCSC1C2C(=O)C(Br)=CC13CCNc1c(O)c4c5c(c13)=[N+]2CCC=5C=N4 (stereo not drawn)
zone 1

Note: place this compound into its band. Item: "Cc1cc(NC(=O)NCc2ccc(N3C(N)=NC(N)=NC3(C)C)cc2)ccc1S(=O)(=O)F"
zone 2

Note: place this compound into its band. Item: "CC(C)CCC1(CCCl)C(=O)NC(=O)NC1=O"
zone 3

Note: place this compound into its band. Item: "CCC1(C(C)C)C(=O)NC(=S)NC1=O"
zone 3

Note: place this compound into its band. Item: "COc1ccc(/C=C\c2cc(OC)c(OC)c(OC)c2)cc1NC(=O)/C=C/c1cc(OC)c(OC)c(OC)c1"
zone 2

Note: place this compound into its band. Item: COC1CC2c3ccccc3C1C(C)=[N+]2C (stereo not drawn)
zone 3

Note: place this compound into its band. Item: "O=C1NC(=O)C(=Cc2cn(CCCCCCn3c4ccccc4c(=O)c4ccccc43)c3ccccc23)C(=O)N1"
zone 2

Note: place this compound into its band. Item: "CC(=O)c1ccc(C(=O)NCC2CCC3(CC2)OOC2(CCCCC2)OO3)cc1"
zone 2
